biological target: κ1 opioid receptor (Cavia porcellus, UniProt P41144); construct: Guinea pig brain membranes were prepared each day using partially thawed guinea pig brain; from tissue; host or cells: guinea pig brain membranes; assay: Radioligand binding, kappa sites, displacement of [3H]U69,593 in guinea pig brain membranes; conditions: pyridomorphinans; [3H]U69,593 (1.2–2.2 nm), guinea pig brain membranes; read-out: Ki (nM) ± SEM κ1
Sequence (P41144 whole entry): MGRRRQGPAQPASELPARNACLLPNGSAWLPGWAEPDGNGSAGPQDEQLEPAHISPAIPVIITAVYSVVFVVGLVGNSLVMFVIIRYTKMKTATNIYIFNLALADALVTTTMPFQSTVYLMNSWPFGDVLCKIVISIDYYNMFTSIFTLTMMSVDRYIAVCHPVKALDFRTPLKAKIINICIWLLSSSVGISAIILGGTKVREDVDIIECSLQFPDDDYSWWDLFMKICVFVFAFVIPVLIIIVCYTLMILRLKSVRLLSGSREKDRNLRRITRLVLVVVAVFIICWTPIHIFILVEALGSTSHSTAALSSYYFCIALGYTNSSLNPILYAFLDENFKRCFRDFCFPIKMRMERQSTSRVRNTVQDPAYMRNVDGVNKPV
endpoint_name: Ki (nM)
# number only, unit nM dropped from output

> print(dat)
                                 cpd.smiles                             target.system  endpoint.name  result.number
1  Nc1cnc2c(c1)C[C@@]1(O)[C@H]3Cc4ccc(O)c5c4[C@@]1(CCN3CC1CC1)[C@H]2O5  κ1 opioid receptor (Cavia porcellus, UniProt P41144)             Ki             12

Below: the item to evaluate.
Supply recorded Ki for CCOC(=O)c1cnc2c(c1)C[C@@]1(O)[C@H]3Cc4ccc(O)c5c4[C@@]1(CCN3CC1CC1)[C@H]2O5 here.
9.6

Just for reference, patent US7105675B2 is where these values come from.
